# MEASUREMENT_DESCRIPTION: Triptolide plasma toxicokinetics in mice
# Format: in vivo
# EXPERIMENTAL_CONTEXT: C57, mouse, iv, 1 mg/kg, TP 1.0 mg/kg iv, 15 nmol mdr1a-siRNA iv 2 days before
EXPERIMENTAL_ENDPOINT: half-life (min)
The reply should be a number in min, with the unit left off.

Recorded half-life (compound CC(C)[C@]12O[C@H]1[C@@H]1O[C@]13[C@]1(O[C@H]1C[C@H]1C4=C(CC[C@@]13C)C(=O)OC4)[C@@H]2O [TP, Triptolide] ): 29.4

----------
# MEASUREMENT_DESCRIPTION: Triptolide plasma toxicokinetics in mice
# Assay type: in vivo
# EXPERIMENTAL_CONTEXT: C57, mouse, iv, 1 mg/kg, TP 1.0 mg/kg iv, 15 nmol mdr1a-siRNA iv 2 days before
EXPERIMENTAL_ENDPOINT: Vd
Value and unit, in that order.

Recorded Vd (compound CC(C)[C@]12O[C@H]1[C@@H]1O[C@]13[C@]1(O[C@H]1C[C@H]1C4=C(CC[C@@]13C)C(=O)OC4)[C@@H]2O [TP, Triptolide] ): 3.3 L/kg

----------
# TARGET_ENTITY: P-gp (Mus musculus, UniProt P21447)
# Construct: from tissue; host or cells: whole living mice (in vivo, intravenous digoxin 1 mg/kg after NC-siRNA or mdr1a-1 siRNA)
# Sequence (P21447 whole entry): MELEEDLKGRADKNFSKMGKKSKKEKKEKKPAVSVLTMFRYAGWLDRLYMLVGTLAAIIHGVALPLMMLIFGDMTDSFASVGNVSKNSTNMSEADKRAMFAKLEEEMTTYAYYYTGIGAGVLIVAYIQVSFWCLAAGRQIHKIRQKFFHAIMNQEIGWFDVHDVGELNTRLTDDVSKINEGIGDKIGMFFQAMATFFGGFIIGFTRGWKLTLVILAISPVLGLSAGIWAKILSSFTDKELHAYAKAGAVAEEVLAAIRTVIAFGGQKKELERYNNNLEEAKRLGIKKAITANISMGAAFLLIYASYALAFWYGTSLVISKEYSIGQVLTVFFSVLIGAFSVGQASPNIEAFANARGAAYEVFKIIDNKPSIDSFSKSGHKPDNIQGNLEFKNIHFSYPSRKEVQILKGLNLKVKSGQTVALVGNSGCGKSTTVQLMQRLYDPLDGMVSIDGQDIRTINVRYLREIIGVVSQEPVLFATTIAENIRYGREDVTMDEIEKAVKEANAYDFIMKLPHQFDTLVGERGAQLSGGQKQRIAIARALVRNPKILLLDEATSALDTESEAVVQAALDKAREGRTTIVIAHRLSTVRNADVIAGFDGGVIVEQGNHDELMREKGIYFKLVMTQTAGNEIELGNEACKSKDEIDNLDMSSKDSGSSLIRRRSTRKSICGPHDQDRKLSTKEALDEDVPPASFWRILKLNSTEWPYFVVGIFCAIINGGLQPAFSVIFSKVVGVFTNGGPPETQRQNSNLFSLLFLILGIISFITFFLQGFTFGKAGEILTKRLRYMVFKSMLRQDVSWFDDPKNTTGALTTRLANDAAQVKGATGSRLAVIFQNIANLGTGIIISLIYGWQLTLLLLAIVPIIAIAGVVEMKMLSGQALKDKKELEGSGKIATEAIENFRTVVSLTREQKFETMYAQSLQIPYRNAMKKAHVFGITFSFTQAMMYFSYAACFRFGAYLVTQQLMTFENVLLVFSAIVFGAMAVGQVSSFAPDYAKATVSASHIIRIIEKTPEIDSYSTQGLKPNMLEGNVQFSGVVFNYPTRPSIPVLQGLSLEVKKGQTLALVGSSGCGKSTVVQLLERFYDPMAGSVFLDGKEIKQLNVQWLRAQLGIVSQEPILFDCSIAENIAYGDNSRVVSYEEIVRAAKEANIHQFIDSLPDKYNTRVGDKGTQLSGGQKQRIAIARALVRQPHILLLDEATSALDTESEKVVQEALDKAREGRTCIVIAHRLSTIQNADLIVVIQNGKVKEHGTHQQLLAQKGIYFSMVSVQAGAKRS
# MEASUREMENT_DESCRIPTION: P-gp function in knockdown mice assessed by digoxin plasma pharmacokinetics
# Type: in vivo
# EXPERIMENTAL_CONTEXT: iv, 1 mg/kg, digoxin 1 mg/kg injection, NC-siRNA iv 2 days prior
# Protocol: For validation of silence efficiency in vivo, mdr1a-1 siRNA was injected via the tail vein of mice after diluted to 5, 10 and 15 nmol with saline in 200 μl. After 48 h, the mice were euthanized and the liver was collected for measurement of the P-gp protein expression using western blot. The P-gp function in gene knockdown mice was assessed using digoxin, a known P-gp substrate. […] The digoxin concentrations in samples were quantitatively analyzed by a published LC-MS/MS method. […]
EXPERIMENTAL_ENDPOINT: half-life (min)
The reply should be a number in min, with the unit left off.

Recorded half-life (compound C[C@H]1O[C@@H](O[C@H]2[C@@H](O)C[C@H](O[C@H]3[C@@H](O)C[C@H](O[C@H]4CC[C@@]5(C)[C@H](CC[C@@H]6[C@@H]5C[C@@H](O)[C@]5(C)[C@@H](C7=CC(=O)OC7)CC[C@]65O)C4)O[C@@H]3C)O[C@@H]2C)C[C@H](O)[C@@H]1O ): 342

----------
# TARGET_ENTITY: P-gp (Mus musculus, UniProt P21447)
# Construct: from tissue; host or cells: whole living mice (in vivo, intravenous digoxin 1 mg/kg after NC-siRNA or mdr1a-1 siRNA)
# MEASUREMENT_DESCRIPTION: P-gp function in knockdown mice assessed by digoxin plasma pharmacokinetics
# Type: in vivo
# EXPERIMENTAL_CONTEXT: iv, 1 mg/kg, digoxin 1 mg/kg injection, mdr1a-1 siRNA iv 2 days prior
EXPERIMENTAL_ENDPOINT: MRT (h)
The reply should be a number in h, with the unit left off.

Recorded MRT (molecule C[C@H]1O[C@@H](O[C@H]2[C@@H](O)C[C@H](O[C@H]3[C@@H](O)C[C@H](O[C@H]4CC[C@@]5(C)[C@H](CC[C@@H]6[C@@H]5C[C@@H](O)[C@]5(C)[C@@H](C7=CC(=O)OC7)CC[C@]65O)C4)O[C@@H]3C)O[C@@H]2C)C[C@H](O)[C@@H]1O ): 3.8
